- testTarget: Protein arginine N-methyltransferase 1 (Homo sapiens)
- Sequence (Q99873 whole entry): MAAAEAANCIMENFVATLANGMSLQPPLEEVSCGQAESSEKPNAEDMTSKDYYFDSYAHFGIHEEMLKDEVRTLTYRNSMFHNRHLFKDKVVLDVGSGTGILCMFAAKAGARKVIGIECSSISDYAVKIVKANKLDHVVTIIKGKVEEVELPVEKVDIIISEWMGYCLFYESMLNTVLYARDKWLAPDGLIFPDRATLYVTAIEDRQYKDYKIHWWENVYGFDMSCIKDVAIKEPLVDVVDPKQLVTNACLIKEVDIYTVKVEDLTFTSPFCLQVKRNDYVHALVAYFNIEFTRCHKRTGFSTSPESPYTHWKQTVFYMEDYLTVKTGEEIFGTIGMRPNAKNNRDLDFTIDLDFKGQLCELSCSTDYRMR
outcomeMeasure: IC50 (µM)

{"columns": ["smilesRepr", "outcomeMeasure", "scaleUnit", "observedValue"],
 "data": [
  ["Cc1cc(C)c(CNC(=O)c2cc(Cl)c3c(c2C)O[C@@](C)([C@H]2CC[C@H](N(C)C)CC2)O3)c(=O)[nH]1", "IC50", "µM", 100]
]}

---

- experimentNotes: Cmax in BALB/c mouse at 40 mg/kg administered as single dose
- Format: ADME, organism-based
- measurementContext: in vivo, route po

{"columns": ["smilesRepr", "Cmax [µM]"],
 "data": [
  ["CCN1CCN(c2ccc(-c3cc(C(=O)NCc4c(C)cc(C)[nH]c4=O)c(C)c4c3O[C@](C)(CN3CCOCC3)O4)cn2)CC1", 6]
]}
